- assay-summary: Single-dose PK and bioavailability in dogs
- Type: in vivo
- conditions: female, beagle, dog, plasma; single dose, PO 100 mg/kg/day, F
measurement-name: Tmax (min)
Entry rule: numbers only, all in min.

Ask: Give a short answer stating reported Tmax for C[C@]12CC[C@@H]3c4ccc(B(O)O)cc4C[C@@H](CCCCCCCCC[S+]([O-])CCCC(F)(F)C(F)(F)F)[C@H]3[C@@H]1CC[C@@H]2O (stereo partly shown) .
Result: 30

====

- assay-summary: Single-dose PK and bioavailability of ZB716 in rats
- Assay type: in vivo
- conditions: female, Sprague Dawley, rat, plasma; single dose, PO 30 mg/kg/day, F; read-out: Tmax (median)
measurement-name: Tmax

Ask: Give a short answer stating reported Tmax for C[C@]12CC[C@@H]3c4ccc(B(O)O)cc4C[C@@H](CCCCCCCCC[S+]([O-])CCCC(F)(F)C(F)(F)F)[C@H]3[C@@H]1CC[C@@H]2O (stereo partly shown) [ZB716, fulvestrant-3-boronic acid] .
Result: 1 h
